Target: T1, human GFRα3 expressed with a C-terminal mFc tag (human)
T1 construct: also called hGFRα3-mFc
T1 chain: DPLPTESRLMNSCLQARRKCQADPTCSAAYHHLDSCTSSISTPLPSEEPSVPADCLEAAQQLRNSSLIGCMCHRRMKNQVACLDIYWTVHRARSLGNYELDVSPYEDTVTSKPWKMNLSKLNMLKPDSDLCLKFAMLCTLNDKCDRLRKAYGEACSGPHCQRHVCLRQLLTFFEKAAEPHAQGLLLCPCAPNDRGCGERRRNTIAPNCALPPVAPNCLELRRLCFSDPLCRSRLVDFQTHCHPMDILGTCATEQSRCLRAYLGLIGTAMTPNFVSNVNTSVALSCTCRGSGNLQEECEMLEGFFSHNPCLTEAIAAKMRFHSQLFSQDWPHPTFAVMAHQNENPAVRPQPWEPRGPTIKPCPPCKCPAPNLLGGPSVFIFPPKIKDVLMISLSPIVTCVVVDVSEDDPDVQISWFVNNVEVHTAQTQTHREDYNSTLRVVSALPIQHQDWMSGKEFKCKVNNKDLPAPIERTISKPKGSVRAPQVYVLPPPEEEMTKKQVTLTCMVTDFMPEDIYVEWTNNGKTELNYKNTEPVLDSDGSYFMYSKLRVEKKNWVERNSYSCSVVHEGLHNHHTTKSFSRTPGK
Test: SPR, Ab captured, 37C
recorded-endpoint: kon (M⁻¹ s⁻¹)
Could you give me the number in M⁻¹ s⁻¹? Just the number is fine.

Query: Entry H4H2292S (antibody, human IgG4, V domains shown, human IgG4 Fc (H4H)) VH: EVQLVESGGGVVQPGRSLRLSCAASGFTFSSYGMHWVRQAPGKGLEWVSFIWYDGSNKYYADSVKGRFTISRDNSKNTLYLQMNSLTAEDTAVYYCARRGILTGTTAFDIWGQGTMVTVSS VL: DIQMTQSPSSLSASVGDRVTITCRASQSISSYLNWYQQKPGKAPKLLIYAASSLQSGVPSRFSGSGSGTDFTLTIRSLIPEDFATYYCQQTYNTPFTFGPGTKVEIK has what kon?
Reply: 596000
